Would you mind telling me the reported melting point of each entry?

Query string: I am curious: what melting point value has been reported for CCCCC(OC(C)=O)c1ccccc1C(=O)NCCCCNC(=O)c1ccccc1-c1ccc(Cn2c(CCC)nc3c(C)cc(-c4nc5ccccc5n4C)cc32)cc1 (stereo not drawn) [I8] ?
Result string: 97 to 99 °C

Query string: What value of measured melting point is listed for CCCCC(OC(C)=O)c1ccccc1C(=O)OCCCCCOC(=O)c1ccccc1-c1ccc(Cn2c(CCC)nc3c(C)cc(-c4nc5ccccc5n4C)cc32)cc1 (stereo not drawn) [I4] ?
Result string: 78 to 79 °C

Query string: Would you kindly share the measured melting point for CCCCC(OC(C)=O)c1ccccc1C(=O)NCCCCCCNC(=O)c1ccccc1-c1ccc(Cn2c(CCC)nc3c(C)cc(-c4nc5ccccc5n4C)cc32)cc1 (stereo not drawn) [I7] ?
Result string: 96 to 98 °C
